Target: recombinant SARS-CoV-2 Main protease (Mpro) (Severe acute respiratory syndrome coronavirus 2 (2019-nCoV) (SARS-CoV-2), UniProt P0DTD1)
Assay: Cov Mpro Biochemical IC50 Assay
Details: recombinant SARS-CoV-2 Mpro 7.5 nM, fluorogenic peptide substrate 40 μM; read-out: MPro IC50
This section presents compounds with their documented IC50 values.
Express your answer in nM, writing the number without its unit.

# count of solved cases: 6
INSERT INTO measurements (compound, observed_result) VALUES
  ('COc1cc(-c2cc3[nH]c(=O)n(-c4cncc5ccncc45)c(=O)c3s2)c(Cl)cc1F', 9.45),
  ('COc1cc(-c2cc3c(s2)c(=O)n(-c2cncc4cccc(C)c24)c(=O)n3CCC#N)c(Cl)cc1F (atropisomer, axis not shown)', 5.5),
  ('Cn1ncc2cncc(-n3c(=O)[nH]c4cc(-c5c(Cl)cccc5-c5cncc(C#N)c5)sc4c3=O)c21', 7.27),
  ('COc1ccc(Cl)c(-c2ccc3c(=O)n(-c4cncc5ccc(N6CCOCC6)cc45)c(=O)[nH]c3c2)c1', 11.8),
  ('Cc1cccc(C#N)c1-c1cc2c(s1)c(=O)n(-c1cncc3cnn(C)c13)c(=O)n2CCC#N', 199),
  ('COc1ccc(C#N)c(-c2ccc3c(=O)n(-c4cncc5ccccc45)c(=O)[nH]c3c2)c1 (single isomer, unassigned) [Example 569]', 8.41);

Which IC50 is listed for COc1cc(-c2cc3c(s2)c(=O)n(-c2cncc4nnn(C5CC5)c24)c(=O)n3CCC#N)c(Cl)cc1F ?
11

---

Biological target: recombinant SARS-CoV-2 Main protease (Mpro) (Severe acute respiratory syndrome coronavirus 2 (2019-nCoV) (SARS-CoV-2))
Assay: Cov Mpro Biochemical IC50 Assay
Conditions: recombinant SARS-CoV-2 Mpro, fluorogenic peptide substrate; read-out: MPro IC50
value.kind: pIC50
# reply with the number alone; pIC50 is -log10 of concentration in mol/L

# count of solved cases: 8
INSERT INTO assay_data (molecule_smiles, observed_result) VALUES
  ('Cn1cc(-c2cccc(Cl)c2-c2ccc3c(=O)n(-c4cncc5ccccc45)c(=O)[nH]c3c2)c(C#N)n1', 7.62),
  ('CC(C)(O)c1cncc(-c2cccc(Cl)c2-c2ccc3c(=O)n(-c4cncc5ccccc45)c(=O)[nH]c3c2)c1', 7.98),
  ('Cc1c(Cl)cccc1-c1cc2[nH]c(=O)n(-c3cncc4ccccc34)c(=O)c2s1', 5.13),
  ('COc1cc(-c2ccc3c(=O)n(-c4cncc5ccccc45)c(=O)[nH]c3c2)c(Cl)cn1', 6.34),
  ('COc1ccc(-n2cc(-c3cccc(Cl)c3-c3ccc4c(=O)n(-c5cncc6ccccc56)c(=O)[nH]c4c3)c(C)n2)cc1', 6.62),
  ('O=c1[nH]c2cc(-c3c(Cl)cccc3-c3ccnnc3)ccc2c(=O)n1-c1cncc2ccccc12', 7.86),
  ('Cc1cn(C)nc1-c1cccc(Cl)c1-c1ccc2c(=O)n(-c3cncc4ccccc34)c(=O)[nH]c2c1', 7.21),
  ('Cc1c(C2CCOCC2)cncc1-n1c(=O)[nH]c2cc(-c3ccccc3Cl)sc2c1=O', 6.41);

Which pIC50 is listed for O=c1[nH]c2cc(-c3c(F)cccc3Cl)ccc2c(=O)n1-c1cncc2ccccc12 ?
6.46

Then what about the compound COc1cccc(C#N)c1-c1ccc2c(=O)n(-c3cncc4ccccc34)c(=O)[nH]c2c1 ?
7.12

Then what about the compound Cc1c(-c2ccccc2Cl)sc2[nH]c(=O)n(-c3cncc4ccccc34)c(=O)c12 ?
6.07

Then what about the compound COc1ccc(Cl)c(-c2cc3[nH]c(=O)n(-c4cncc5ccccc45)c(=O)c3cc2F)c1 ?
7.26

Then what about the compound Cc1nn(C)cc1-c1cc2[nH]c(=O)n(-c3cncc(C4CC4)c3)c(=O)c2s1 ?
4.43

Then what about the compound NS(=O)(=O)c1cccc(-c2cccc(Cl)c2-c2ccc3c(=O)n(-c4cncc5ccccc45)c(=O)[nH]c3c2)c1 ?
7.86

Where these numbers come from: patent US20240116946A1
